# procedure.summary: Metabolic stability in rat liver microsomes assessed as half life at […] incubated for 45 mins in presence of NADPH by LC/MS analysis
# Assay type: ADME, Microsome
observation.type: half-life

I have this molecule here, Cl.Cn1cc(CN2CC3(CCN(c4ncc(C(=O)NO)cn4)C3)C2)c2ccc(C#N)cc21 , and I need its recorded half-life.
> 2 h

====

IC50 at 72 h values for the compounds below.
# procedure.summary: Cytotoxicity against human HepG2 cells incubated for 72 hrs by CCK-8 assay
Provide the reading as a plain figure in nM.

These recorded examples may help you get a feel for the data.
- structure: "Cc1ccc2c(CN3CC4(CCN(c5ncc(C(=O)NO)cn5)C4)C3)cn(C)c2c1"
  measurement.units: "nM"
  IC50 at 72 h: 500
- structure: "O=C(NO)c1cnc(N2CCC3(CN(Cc4cccc5ccncc45)C3)C2)nc1"
  measurement.units: "nM"
  IC50 at 72 h: 1840
- structure: "Cn1nc(CN2CC3(CCN(c4ncc(C(=O)NO)cn4)C3)C2)c2ccccc21"
  measurement.units: "nM"
  IC50 at 72 h: 2130
- structure: "O=C(NO)c1cnc(N2CCC3(CN(Cc4c5ccccc5cc5ccccc45)C3)C2)nc1"
  measurement.units: "nM"
  IC50 at 72 h: 31000
- structure: "O=C(NO)c1cnc(N2CCC3(CN(Cc4ccoc4)C3)C2)nc1"
  measurement.units: "nM"
  IC50 at 72 h: 6030

Now consider the entry below.
Item under review: O=C(NO)c1cnc(N2CCC3(CN(Cc4cccc5cccnc45)C3)C2)nc1 . Reported IC50 at 72 h?
2660
